Reference source for all entries: the supplement of paper PMC12420376

- Tested on: OVCAR8
- test-name: drug sensitivity score (DSS2) on cancer cell count; higher = more sensitive; extreme values may be limits of the assay
- condition-notes: co-cultured fibroblast: BJHTERT; 72 h
Would you kindly list drug sensitivity score for each of these compounds?
One number for each entry, in DSS.

| compound | drug sensitivity score (DSS) |
| --- | --- |
| CCN(c1cc(-c2ccc(CN3CCOCC3)cc2)cc(C(=O)NCc2c(C)cc(C)[nH]c2=O)c1C)C1CCOCC1 | 0 |
| CC(O)c1cc(C(=O)N[C@@H](C)Cn2ccc(-c3ccc(C#N)c(Cl)c3)n2)n[nH]1 (some centres undefined) | 0.5 |
| CN(C)C(=O)c1cc2cnc(Nc3ccc(N4CCNCC4)cn3)nc2n1C1CCCC1 | 3.9 |
| CC(C)(C)Cn1c(N)nc2ccc(-c3[nH]c(C(C)(C)C)nc3-c3ccc(F)cc3)nc21 | 0 |
| Cc1ccc(-n2nc(C(C)(C)C)cc2NC(=O)Nc2ccc(OCCN3CCOCC3)c3ccccc23)cc1 | 4.4 |

Give drug sensitivity score for each of the items listed below.
1. NC(=S)N/N=C/c1ncccc1N
2. COc1cc2ncnc(Oc3cccc(NC(=O)Nc4cc(C(C)(C)C(F)(F)F)on4)c3)c2cc1OC
3. CNC(=O)c1nn(C)c2c1C(C)(C)Cc1cnc(Nc3ccc(N4CCN(C)CC4)cc3)nc1-2
4. O=C(CCCCCCC(=O)Nc1ccc([C@H]2O[C@@H](CSc3nc(-c4ccccc4)c(-c4ccccc4)o3)C[C@@H](c3ccc(CO)cc3)O2)cc1)NO
5. CC(C)c1c(C(=O)Nc2ccccc2)c(-c2ccccc2)c(-c2ccc(F)cc2)n1CC[C@@H](O)C[C@@H](O)CC(=O)O
6. CC(C)Oc1ccc(-c2nn([C@@H](C)c3oc4ccc(F)cc4c(=O)c3-c3cccc(F)c3)c3ncnc(N)c23)cc1F

A:
[5.2, 0, 13.9, 5, 4, 0]

Give drug sensitivity score for each of the items listed below.
1. O=C(Nc1ccc2[nH]nc(-c3ccncc3)c2c1)[C@@H]1CCN(CC(=O)N2CCN(c3ccc(-c4ncccn4)cc3)CC2)C1
2. CC[C@@](C)(Nc1ccnc(-c2c[nH]c3ncccc23)n1)C(=O)NCC(F)(F)F
3. CS(=O)(=O)c1ccc(C(=O)Nc2ccc(Cl)c(-c3ccccn3)c2)c(Cl)c1
4. O=C(O)CNC(=O)c1c(O)c2ccccc2n(Cc2ccccc2)c1=O
5. Cc1cn(-c2cc(NC(=O)c3ccc(C)c(Nc4nccc(-c5cnccn5)n4)c3)cc(C(F)(F)F)c2)cn1
6. CC(C)C[C@H](NC(=O)[C@@H](COC(C)(C)C)NC(=O)[C@H](Cc1ccc(O)cc1)NC(=O)[C@H](CO)NC(=O)[C@H](Cc1c[nH]c2ccccc12)NC(=O)[C@H](Cc1cnc[nH]1)NC(=O)[C@@H]1CCC(=O)N1)C(=O)N[C@@H](CCCNC(=N)N)C(=O)N1CCC[C@H]1C(=O)NNC(N)=O
7. CC1(C)C(C(=O)Nc2ccc(S(=O)(=O)c3ccc(NC(=O)C4C(C)(C)C4(C)C)cc3)cc2)C1(C)C

A:
16.6
0
0
0
0
0
0
